All values here come from patent US20240270821A1.

Can you tell me Relative cAMP EC50 for the items I'm about to list?
# study target: T1, human GIP receptor (human) (UniProt P48546)
# T1 sequence (looked up): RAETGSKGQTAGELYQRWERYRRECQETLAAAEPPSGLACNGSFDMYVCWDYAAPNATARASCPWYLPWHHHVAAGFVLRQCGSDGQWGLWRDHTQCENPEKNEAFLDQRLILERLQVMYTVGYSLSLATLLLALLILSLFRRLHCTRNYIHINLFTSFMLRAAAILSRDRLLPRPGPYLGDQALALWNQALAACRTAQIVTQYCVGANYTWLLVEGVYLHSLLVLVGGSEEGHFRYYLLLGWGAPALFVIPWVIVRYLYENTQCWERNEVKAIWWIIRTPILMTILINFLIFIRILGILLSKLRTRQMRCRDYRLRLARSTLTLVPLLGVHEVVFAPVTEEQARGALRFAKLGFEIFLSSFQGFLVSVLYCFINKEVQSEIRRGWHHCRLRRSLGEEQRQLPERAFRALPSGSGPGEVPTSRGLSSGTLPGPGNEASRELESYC
# experiment summary: cell-based or functional assay
Starred links: 1 amine or outer side, 2 acyl side, 3 side chain; linkers in the order of their positions; H or OH if unused. Non-standard residues stand in square brackets, D forms with d. Groups on a side chain read outwards from the residue. No end group written: not given here. *: point of attachment. C20 diacid = O=C(O)CCCCCCCCCCCCCCCCCCC(=O)*; γGlu = O=C(O)[C@H](CCC(=O)[*:2])N[*:1]; αMeL = CC(C)C[C@](C)(N)C(=O)O; AEEA = NCCOCCOCC(=O)O; Aib = CC(C)(N)C(=O)O
Numbers only here, please. The scale is nM.

get_value(item= YXQGTXTSDXSIXLDKKAQXXFIEYLQEGGPSSGEPPPEGSEE (synthetic construct; SITE 2: note = 2-Aminoisobutyric Acid; SITE 6: note = alpha-methyl-2-fluoro-L-phenylalanine; SITE 10: note = 3-(4-Pyridyl)-L-alanine; SITE 13: note = alpha-methyl-leucine; SITE 17: note = Lysine is chemically modified through conjugation of the epsilon-amino group of the Lysine) [Example 653 (SEQ ID NO: 659)] , readout=Relative cAMP EC50) returns 0.0303

So for YXQGTFTSDFSKXLDKKAQXAFIEYLLEXGPSSGAPPPSSG (acylated Lys; Aib, αMeL non-natural; C-terminal amide; synthetic construct; SITE 2: note = 2-Aminoisobutyric Acid; SITE 13: note = alpha-methyl-leucine; SITE 17: note = Lysine is chemically modified through conjugation of the epsilon-amino group of the Lysine side chain with (2-[2-(2-Amino-ethoxy)-ethoxy]-acetyl)-(gamma-Glu)-CO-(CH2) 18-CO2H; SITE 20: n) [Example 44] , the logged Relative cAMP EC50 turned out to be 0.116

Data point: Y[Aib]QGTFTSDYSI[αMeL]LDKIAAK([AEEA-AEEA-γGlu-C20 diacid])QFVEWLLA[Aib]GPSSGEPPPSEG-NH2 [Example 324] ; Relative cAMP EC50 = 0.164
